From: BindingDB's records for doi:10.1021/jm001024j

Listed next: entries and their corresponding pKi.
subject-of-test: Dimer of Gag-Pol polyprotein [489-587] (Human immunodeficiency virus 1, UniProt P12497)
Construct: 489-587
protocol: Protease Inhibition Assay
experimental-setup: pH 5; 30 °C
Quick note: pKi means taking -log10 of the concentration in moles per liter.

>>> value_observed("O=S1(=O)N(Cc2ccccc2)[C@H](COc2ccccc2)[C@H](O)[C@@H](O)[C@@H](COc2ccccc2)N1Cc1ccc(-c2cccs2)cc1")
7.20
>>> value_observed("O=S1(=O)N(Cc2ccc(CO)cc2)[C@H](COc2ccccc2)[C@H](O)[C@@H](O)[C@@H](COc2ccccc2)N1Cc1ccc(CO)cc1")
8.51
>>> value_observed("CNC(=O)CN1[C@H](COc2ccccc2)[C@H](O)[C@@H](O)[C@@H](COc2ccccc2)N(CC(=O)NC)S1(=O)=O")
4.60
>>> value_observed("O=S1(=O)N(Cc2ccc(-c3cccs3)cc2)[C@H](COc2ccccc2)[C@H](O)[C@@H](O)[C@@H](COc2ccccc2)N1Cc1ccc(-c2cccs2)cc1")
6.04

Item under review: "CNC(=O)c1cccc(CN2[C@H](COc3ccccc3)[C@H](O)[C@@H](O)[C@@H](COc3ccccc3)N(Cc3cccc(C(=O)NC)c3)S2(=O)=O)c1" . Reported pKi?
7.41

Data request, read-out pKi, for "O=S1(=O)N(Cc2cccc(I)c2)[C@H](COc2ccccc2)[C@H](O)[C@@H](O)[C@@H](COc2ccccc2)N1Cc1cccc(I)c1"
7.03

Which pKi is reported for this molecule? CC(N=O)c1cccc(CN2[C@H](COc3ccccc3)[C@H](O)[C@@H](O)[C@@H](COc3ccccc3)N(Cc3cccc(C(C)N=O)c3)S2(=O)=O)c1 (stereo partly drawn)
8.47

// lookup pKi for "O=S1(=O)N(Cc2cccc(CCO)c2)[C@H](COc2ccccc2)[C@H](O)[C@@H](O)[C@@H](COc2ccccc2)N1Cc1cccc(CCO)c1"
7.37

// lookup pKi for "O=C(CN1[C@H](COc2ccccc2)[C@H](O)[C@@H](O)[C@@H](COc2ccccc2)N(Cc2ccccc2)S1(=O)=O)Nc1nccs1"
6.46

Please report the recorded pKi for "CNC(=O)CN1[C@H](COc2ccccc2)[C@H](O)[C@@H](O)[C@@H](COc2ccccc2)N(Cc2ccccc2)S1(=O)=O" .
5.85

Any idea what pKi was measured for "CN1[C@H](COc2ccccc2)[C@H](O)[C@@H](O)[C@@H](COc2ccccc2)N(Cc2ccccc2)S1(=O)=O" ?
6.29

What value of measured pKi is listed for "O=S1(=O)N(Cc2ccc(-c3cccs3)cc2)[C@H](COc2ccccc2)[C@H](O)[C@@H](O)[C@@H](COc2ccccc2)N1Cc1cccc(-c2cccs2)c1" ?
5.22

What value of measured pKi is listed for "COC(=O)c1ccc(CN2[C@H](COc3ccccc3)[C@H](O)[C@@H](O)[C@@H](COc3ccccc3)N(Cc3ccc(C(=O)OC)cc3)S2(=O)=O)cc1" ?
7.08
